The origin of these recorded values is ChEMBL document CHEMBL1129527.

I'd appreciate it if you could supply pEC50 values for the items below.
- System: CCRF-CEM
- assay_explanation: Anti-HIV activity against HIV-I RFII strain in CEM cell line
- Assay type: functional, cell-based
- test_settings: Homo sapiens
One number for each entry, as −log10 of the molar value.

Worked cases, answers included:
>  <molecule>
CCCc1cc(=O)oc2c3c(c4c(c12)OC(C)(C)C=C4)O[C@@H](C)C(C)[C@@H]3O (mixture of isomers)

>  <numeric_result>
6.31

$$$$
>  <molecule>
Cc1cn([C@H]2C[C@H](N=[N+]=[N-])[C@@H](CO)O2)c(=O)[nH]c1=O

>  <numeric_result>
7.64

$$$$
>  <molecule>
CCCc1cc(=O)oc2c3c(c4c(c12)OC(C)(C)C=C4)O[C@H](C)[C@@H](C)[C@@H]3O [CALANOLIDE A]

>  <numeric_result>
6.57

$$$$

Look up pEC50: `Nc1ccn([C@H]2CC[C@@H](CO)O2)c(=O)n1`
6.72
